Origin of values: PubChem BioAssay AID1159580

- assay-overview: chemical genetic growth profiling, strain panel (AID 1159580);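 note: tested at 20 µM; growth read once vehicle control cultures reached saturation at 30 °C; 1 = growth at the plate median or of vehicle wells; lower values mean less growth of the strain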
- test-parameters: S. cerevisiae deletion strains, growth OD, locus YPL051W, strain arl3, hits give low values
In all, about 5,500 compounds went through this assay and about 2,000 (36%) were called active. Inconclusive results (about 18%) are left out. Some of the results follow.
Reported normalized growth by item:
assay-readout: normalized growth

molecule	value-reported
CCCCCC(O)C1C(=O)OC(C)C(O)/C=C/C=C/C=C/C=C/C=C(\C)C(O)CC(O)CC(O)CC(O)CC(O)CC(O)CC1O (configuration not stated)	0.996
CC(C)Nc1nc(Cl)nc(NC(C)C)n1	0.997
C[C@@H]1O[C@@H](O[C@H]2CC[C@]3(C=O)C4CC[C@]5(C)[C@@H](C6=CC(=O)OC6)CC[C@]5(O)C4CC[C@]3(O)C2)[C@H](O)[C@H](O)[C@H]1O (some centres not stated)	1.01
CCCc1nn(C)c2c(=O)[nH]c(-c3cc(S(=O)(=O)N4CCN(C)CC4)ccc3OCC)nc12	0.993
CC1CCCC(C)N1NC(=O)c1ccc(Cl)c(S(N)(=O)=O)c1 (configuration not stated)	1.02
NS(=O)(=O)c1cc2c(cc1C(F)(F)F)NC(Cc1ccccc1)NS2(=O)=O (configuration not stated)	0.998
C=CCSSSCC=C	0.979
O=S(=O)(O)O	0.981
CCn1nc(C(=O)O)c(=O)c2cc3c(cc21)OCO3	1.02
CCCc1nc(C)c2c(=O)[nH]c(-c3cc(S(=O)(=O)N4CCN(CC)CC4)ccc3OCC)nn12	0.975
COc1cc(C(=O)N2CCOCC2)cc(OC)c1OC	0.993
CC(C)(C)NCC(O)COc1cccc2c1C[C@H](O)[C@H](O)C2 (some centres not stated)	1
NC[C@@H]1O[C@H](O[C@@H]2[C@@H](CO)OC(O[C@@H]3[C@@H](O)[C@H](N)C[C@H](N)[C@H]3O[C@H]3O[C@H](CO)[C@@H](O)[C@H](O)[C@H]3N)[C@@H]2O)[C@H](N)[C@@H](O)[C@@H]1O (some centres not stated)	0.989
COC1CC(O[C@H]2CC[C@]3(C=O)C4CC[C@]5(C)C(C6=CC(=O)OC6)CC[C@]5(O)C4CC[C@]3(O)C2)OC(C)C1O (some centres not stated)	0.992
Oc1ccc2c3c1OC1[C@@H](O)CC[C@@]4(O)[C@@H](C2)N(CC2CCC2)CC[C@]314 (some centres not stated)	1.01
CC(C)=CC1C(CO)C1(C)C (configuration not stated)	1.01
COc1cccc2c1CCC1=CC(=O)CC[C@@]12C	1

---

- assay-overview: chemical genetic growth profiling, strain panel (AID 1159580);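 note: tested at 20 µM; growth read once vehicle control cultures reached saturation at 30 °C; 1 = growth at the plate median or of vehicle wells; lower values mean less growth of the strain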
- test-parameters: S. cerevisiae deletion strains, growth OD, locus YLR058C, strain SHM2, hits give low values
Screen size: about 5,500 compounds; about 2,000 (36%) were called active. Roughly 18% stayed inconclusive and do not appear here. The list shows a part of the results.
Reported normalized growth by item:

molecule	normalized growth
O=C(O)c1cc(O)ccc1O	1
CC[C@H]1CN2CCC1C[C@@H]2[C@@H](O)c1ccnc2ccc(OC)cc12 (stereo partly specified)	1
CC(=O)N1CCCC1C(=O)O (stereo unspecified)	1.01
O=C(CCCN1CCC2(CC1)C(=O)NCN2c1ccccc1)c1ccc(F)cc1	0.975
C[C@@H]1CC[C@@]23CCC4(C)[C@@](C=CC5[C@@]6(C)CC[C@H](O)C(C)(C)C6CC[C@]54C)(OC2=O)C3[C@H]1C (stereo partly specified)	1.02
CO[C@@H]1[C@@H](OC(N)=O)[C@@H](O)[C@H](Oc2ccc3c(O)c(NC(=O)c4ccc(O)c(CC=C(C)C)c4)c(=O)oc3c2C)OC1(C)C	1.01
COc1ccc(-c2cc(=O)c3c(O)c(OC)c(OC)cc3o2)cc1O	1
CC1(C)C(=O)CC[C@@]2(C)C1C[C@@H](O)[C@@]1(C)C3=CC(=O)O[C@@H](c4ccoc4)[C@]3(C)CCC21 (stereo partly specified)	1.01
CCC(=O)O[C@]1(C(=O)CCl)[C@@H](C)CC2C3CCC4=CC(=O)C=C[C@]4(C)[C@@]3(F)[C@@H](O)C[C@@]21C (stereo partly specified)	0.983
CC1(C)Oc2ccc3ccc(=O)oc3c2CC1O (stereo unspecified)	0.992
CC1(C)S[C@@H]2[C@H](NC(=O)[C@@H](N)c3ccc(O)cc3)C(=O)N2[C@H]1C(=O)O	1.01
C/C=C(\C)C(=O)O[C@@H]1c2c(ccc3ccc(=O)oc23)OC(C)(C)[C@@H]1OC(C)=O	0.995
C[C@@H]1CCC2[C@](C)(CO)[C@@H](O)CC[C@]2(C)[C@@]12CC[C@@](CO)(CCO)O2 (stereo partly specified)	1
CN(C)C(=O)C(CCN1CCC(O)(c2ccc(Cl)cc2)CC1)(c1ccccc1)c1ccccc1	1
CCOC(=O)CC(SP(=S)(OC)OC)C(=O)OCC (stereo unspecified)	1.02
COC(=O)NC(=S)Nc1ccccc1NC(=S)NC(=O)OC	1
CCCCCC(O)C1C(=O)OC(C)C(O)/C=C/C=C/C=C/C=C/C=C(\C)C(O)CC(O)CC(O)CC(O)CC(O)CC(O)CC1O (stereo unspecified)	1.01
C[C@@H]1CC[C@@]23CCC4(C)[C@@](C=CC5[C@@]6(C)CCC(=O)C(C)(C)C6CC[C@]54C)(OC2=O)C3[C@H]1C (stereo partly specified)	1.02
COP(N)(=O)SC (stereo unspecified)	1.01
COC(=O)CC1C(C)(C)C(OC(C)=O)[C@@H]2[C@@H](OC(C)=O)[C@]34O[C@@]2(O)[C@]1(C)C3CC[C@]1(C)C4=CC(=O)O[C@H]1c1ccoc1 (stereo partly specified)	0.988
CC[C@@]1(O)C(=O)OCc2c1cc1n(c2=O)Cc2cc3cc(O)ccc3nc2-1	1.02
Nc1ccc(S(=O)(=O)Nc2ncccn2)cc1	0.976
NCCCN	1
CSCCC(N)C(=O)NC(CC(C)C)C(=O)NC(Cc1ccccc1)C(=O)O (stereo unspecified)	1.01
COC(=O)C(N)CS (stereo unspecified)	0.99
CC(=O)O[C@@H]1CC2C(C)(CC[C@H](O)C2(C)C)C2CC[C@]3(C)C(=CC(=O)O[C@H]3c3ccoc3)C21C (stereo partly specified)	1
COc1cc(C(=O)O)cc(OC)c1OC	1.02
CC(C)(C)NCC(O)COc1cccc2c1C[C@H](O)[C@H](O)C2 (stereo partly specified)	0.997
Cc1ccc(C(C)C)c(O)c1C(=O)O	0.995
COc1ccc(-c2cc(=O)c3c(O)cc(O)cc3o2)cc1	0.998
NC(N)=Nc1ccc(Cl)cc1	1.01
